Molecular target: Factor Xa (Homo sapiens)
Sequence (P00742 235-488 limits assumed): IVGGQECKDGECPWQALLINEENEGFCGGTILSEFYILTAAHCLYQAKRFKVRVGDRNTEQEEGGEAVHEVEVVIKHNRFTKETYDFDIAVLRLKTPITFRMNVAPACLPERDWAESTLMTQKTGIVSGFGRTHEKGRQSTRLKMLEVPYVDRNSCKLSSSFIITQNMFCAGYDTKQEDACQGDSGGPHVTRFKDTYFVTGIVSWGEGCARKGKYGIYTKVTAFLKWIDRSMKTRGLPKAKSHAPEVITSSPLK
Sequence (P00742 41-179 partner limits assumed): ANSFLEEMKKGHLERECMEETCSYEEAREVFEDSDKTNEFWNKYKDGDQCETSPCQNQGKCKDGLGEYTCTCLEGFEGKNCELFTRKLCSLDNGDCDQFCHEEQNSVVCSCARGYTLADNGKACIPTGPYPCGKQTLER
Experiment: Chromogenic kinetic enzyme assay of Factor Xa (S2222)
Assay type: biochemical
Conditions: Table 3; average of three experiments; read-out: Factor Xa IC50

| compound | target.or.test.system | IC50 |
| --- | --- | --- |
| CC(=O)N1CCC(CCc2ccccc2)(OC(=O)N[C@@H](CC(C)C)C(=O)N[C@@H](CCCNC(=N)N)C(=O)c2nc3ccccc3s2)CC1 | Factor Xa (Homo sapiens) | 2000 nM |

====

Target: activated hepsin (Homo sapiens)
Construct: purchased R&D Systems 4776-SE-010
Sequence (P05981 163-417 limits assumed): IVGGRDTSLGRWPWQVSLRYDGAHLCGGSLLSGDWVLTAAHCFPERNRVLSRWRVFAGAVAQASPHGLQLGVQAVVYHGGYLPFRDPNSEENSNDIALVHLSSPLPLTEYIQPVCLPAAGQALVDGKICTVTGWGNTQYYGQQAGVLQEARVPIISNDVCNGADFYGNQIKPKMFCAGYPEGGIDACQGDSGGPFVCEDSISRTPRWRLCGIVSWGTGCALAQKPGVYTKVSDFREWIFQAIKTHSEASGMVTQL
Sequence (P05981 1-162 partner limits assumed): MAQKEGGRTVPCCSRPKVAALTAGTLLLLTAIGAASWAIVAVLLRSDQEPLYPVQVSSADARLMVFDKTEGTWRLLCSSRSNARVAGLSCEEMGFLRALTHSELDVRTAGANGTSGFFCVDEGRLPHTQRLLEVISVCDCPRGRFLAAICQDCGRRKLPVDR
Assay: Fluorescent kinetic enzyme assay of hepsin activity (Boc-QAR-AMC)
Assay type: biochemical
Details: Table 2; read-out: Hepsin (IC50 nM)
Starred links: 1 amine or outer side, 2 acyl side, 3 side chain; linkers in the order of their positions; H or OH if unused. Positions of bridges follow the written chain, without caps; N, C: chain ends. Non-standard residues stand in square brackets, D forms with d. Residues, ends and D or L forms follow the SMILES beside them. X6 = N=C(N)NCCC[C@H](N[*:1])C(=O)c1nc2ccc(C(=O)[*:2])cc2s1
# IC50 per record follows

| compound | measure.unit | IC50 |
| --- | --- | --- |
| CC(=O)N[C@H]1CCCCn2cc(nn2)C[C@H](C(=O)N[C@H](CCCNC(=N)N)C(=O)c2nc3ccccc3s2)NC(=O)[C@H](CC(C)C)NC1=O [VD4118B] | nM | 137 |
| CC(=O)N[C@H]1CC(=O)NCCCC[C@@H](C(=O)N[C@@H](CCCNC(=N)N)C(=O)c2nc3ccccc3s2)NC(=O)[C@H](C(C)C)NC1=O | nM | 7.8 |
| CC(=O)N[C@H]1C/C=C\COc2ccc(cc2)C[C@@H](C(=O)N[C@@H](CCCNC(=N)N)C(=O)c2nc3ccccc3s2)NC(=O)[C@H](CC(C)C)NC1=O | nM | 102 |
| CC(=O)N[C@H]1Cc2cn(nn2)CCCC[C@H](C(=O)N[C@@H](CCCNC(=N)N)C(=O)c2nc3ccccc3s2)NC(=O)[C@H](CC(C)C)NC1=O | nM | 14.1 |
| CC(=O)N[C@H]1CC(=O)NCCCC[C@@H](C(=O)N[C@@H](CCCNC(=N)N)C(=O)c2nc3ccc(C(=O)N[C@@H](C(N)=O)C(C)C)cc3s2)NC(=O)[C@H](CC(C)C)NC1=O [VD3056] (Ac-DLK[X6][dV]-NH2; lactam 1-3) | nM | 5.4 |

====

Target: recombinant thrombin (Homo sapiens)
Experiment: Chromogenic kinetic enzyme assay of thrombin (S2238)
Assay type: biochemical
Conditions: Table 3; average of three experiments; read-out: Thrombin IC50
Experimental: Using GraphPad Prism (GraphPad Software, San Diego, CA), a four-parameter curve fit was used to determine the inhibitor IC50s from a plot of the mean reaction velocity versus the inhibitor concentration. The IC50 values represent the average of three or more separate experimental determinations. Apparent Ki values were calculated from the IC50 values using the Cheng and Prusoff equation (Ki=IC50/(1+[S]/Km). […]
# IC50 per record follows

| molecule | qualifier.operator | IC50 [µM] |
| --- | --- | --- |
| CC(C)C[C@H](NC(=O)OC1(Cc2ccccc2)CCNCC1)C(=O)N[C@@H](CCCNC(=N)N)C(=O)c1nc2ccccc2s1 [Compound 8b] | > | 20 |
| CC(=O)N1CCC(CCc2ccccc2)(OC(=O)N[C@@H](CC(C)C)C(=O)N[C@@H](CCCNC(=N)N)C(=O)c2nc3ccccc3s2)CC1 [Compound 8c] | = | 7.7 |

====

Target: recombinant HGFA serine protease domain (Homo sapiens)
Construct: His6 tag (N); seven amino acid spacer plus TEV cleavage site (N); made in house; host or cells: High 5 insect cells (baculovirus; Sf9 for virus production)
Sequence (Q04756 373-655): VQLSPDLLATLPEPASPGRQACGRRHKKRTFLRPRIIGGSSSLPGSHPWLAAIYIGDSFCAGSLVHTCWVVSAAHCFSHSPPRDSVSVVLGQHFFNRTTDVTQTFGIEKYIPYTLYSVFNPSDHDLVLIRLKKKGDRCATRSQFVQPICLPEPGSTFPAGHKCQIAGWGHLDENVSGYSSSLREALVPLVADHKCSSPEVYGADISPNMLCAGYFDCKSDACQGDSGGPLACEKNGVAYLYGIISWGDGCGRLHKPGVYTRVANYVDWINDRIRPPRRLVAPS
Test: Fluorescent kinetic enzyme assay of HGFA activity (Boc-QLR-AMC)
Assay type: biochemical
Settings: Table 2; read-out: HGFA (IC50 nM)

| compound | target.or.test.system | IC50 |
| --- | --- | --- |
| CC(C)C[C@@H]1NC(=O)[C@@H](N)CCCCNC(=O)CC[C@@H](C(=O)N[C@@H](CCCNC(=N)N)C(=O)c2nc3ccccc3s2)NC1=O | recombinant HGFA serine protease domain (Homo sapiens) | > 20000 nM |
| CC(=O)N[C@H]1Cc2ccc(cc2)OC/C=C\CNC(=O)C[C@@H](C(=O)N[C@H](CCCNC(=N)N)C(=O)c2nc3ccccc3s2)NC(=O)[C@H](CC(C)C)NC1=O [VD4054A] | recombinant HGFA serine protease domain (Homo sapiens) | > 20000 nM |
| CC(C)C[C@@H]1NC(=O)[C@@H](N)CCCCNC(=O)C[C@@H](C(=O)N[C@@H](CCCNC(=N)N)C(=O)c2nc3ccccc3s2)NC1=O | recombinant HGFA serine protease domain (Homo sapiens) | > 20000 nM |
